Reference source: the supplement of paper PMC6757056

B1: library; a variant is named by its letters at N, in order (parent)
chain: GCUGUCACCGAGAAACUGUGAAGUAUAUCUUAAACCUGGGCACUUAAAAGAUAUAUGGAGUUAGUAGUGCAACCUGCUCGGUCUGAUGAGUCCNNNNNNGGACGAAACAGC

variants of: B1; experiment: FACS-Seq fitted mean relative fluorescence mCherry/BFP with ligand (log10 relative fluorescence); HEK293T; ligand: cyclic di-GMP (c-di-GMP-II aptamer); ligand concentration (+) FACS-Seq: 1 mM; higher = higher reporter protein expression; details: ligand present: yes
Entries annotated with measured FACS-Seq fitted mean (log10)

- Changes: "UCUGCU"
  FACS-Seq fitted mean (log10): -0.176
- Changes: "CGUCCU"
  FACS-Seq fitted mean (log10): 0.0379
- Changes: "CGUUCU"
  FACS-Seq fitted mean (log10): 0.0758
- Changes: "CUCGCU"
  FACS-Seq fitted mean (log10): 0.226
- Changes: "GAACAG"
  FACS-Seq fitted mean (log10): 0.0981
- Changes: "UAAUGC"
  FACS-Seq fitted mean (log10): -0.398
- Changes: "GAGACU"
  FACS-Seq fitted mean (log10): -0.00318
- Changes: "AACCAU"
  FACS-Seq fitted mean (log10): 0.0926
- Changes: "CAGCUG"
  FACS-Seq fitted mean (log10): 0.403
- Changes: "CCAUAA"
  FACS-Seq fitted mean (log10): -0.252
- Changes: "GCUGCA"
  FACS-Seq fitted mean (log10): 0.255
- Changes: "CCGAUG"
  FACS-Seq fitted mean (log10): -0.634
- Changes: "GAACGU"
  FACS-Seq fitted mean (log10): -0.133
- Changes: "AACGGA"
  FACS-Seq fitted mean (log10): -0.253
- Changes: "ACGCUC"
  FACS-Seq fitted mean (log10): -0.852
- Changes: "ACAUAG"
  FACS-Seq fitted mean (log10): -0.109
- Changes: "CUGAUU"
  FACS-Seq fitted mean (log10): 0.107
- Changes: "AAGUUA"
  FACS-Seq fitted mean (log10): -0.215
- Changes: "CUUUAA"
  FACS-Seq fitted mean (log10): -0.039
- Changes: "AUAGGG"
  FACS-Seq fitted mean (log10): -0.187
- Changes: "GCGUCG"
  FACS-Seq fitted mean (log10): -0.312
- Changes: "AGAUGA"
  FACS-Seq fitted mean (log10): -0.336
